System: Cytomegalovirus
Assay: Antiviral activity against CMV infected in FlpIn-HEK293 cells assessed as click beetle green reporter driven gene expression incubated for 72 hrs by luciferase based cellular assay
Format: functional, organism-based
Details: HEK293, 72 h
pEC50: −log10 of the molar value.
# pEC50 values compiled below
measurement_name: pEC50

chemical_structure=Cc1cnc(NC(=O)C2CCN(c3ccc(C)c(Cl)c3)CC2)s1 data_value="< 4.40"
chemical_structure=Cc1cnc2sc(CCCOc3ccc(C)c(Cl)c3)nc2c1 data_value="< 4.40"
chemical_structure=Cc1ccc(N2CCC(C(=O)Nc3ncc(Cl)s3)CC2)cc1Cl data_value="< 4.40"
chemical_structure=Cc1ccc(N2CCN(C(=O)Nc3ncc(C(F)(F)F)s3)CC2)cc1Cl data_value="< 5.70"
chemical_structure=Cc1cnc(NC(=O)N2CCN(c3cc(C)c(C#N)cn3)CC2)s1 data_value="< 4.40"
chemical_structure=Cc1cc(N[C@@H]2CCCN(C(=O)Nc3ncc(Cl)s3)C2)ccc1Cl data_value="< 4.40"

---

System: Cytomegalovirus
Assay: Antiviral activity against CMV infected in FlpIn-HEK293 cells assessed as click beetle green reporter driven gene expression incubated for 72 hrs by luciferase based cellular assay
Format: functional, organism-based
Settings: HEK293, 72 h
measurement_name: log10(EC50) (log10 of the value in µM)

compound=Cc1cc(N2CCN(C(=O)Nc3ncc(C#N)s3)CC2)ccc1Cl measurement_name=log10(EC50) data_value=0.36
compound=Clc1cnc2[nH]c(N3CCN(c4cnc(Cl)c(Cl)c4)CC3)nc2c1 measurement_name=log10(EC50) data_value=1.43
compound=Cc1ccc(OCCCc2nc3cc(Cl)cnc3[nH]2)cc1Cl measurement_name=log10(EC50) data_value=1.08
compound=Cc1cnc(NC(=O)N2CCCN(c3ccc(C)c(Cl)c3)CC2)s1 measurement_name=log10(EC50) data_value=1.32
compound=Cc1ccc(N2CCN(C(=O)Nc3ncc(C#N)s3)CC2)cc1Cl measurement_name=log10(EC50) data_value=0.36
compound=Clc1cnc2[nH]c(N3CCN(c4ccc(Cl)c(Cl)c4)CC3)nc2c1 measurement_name=log10(EC50) data_value=0.41
compound=Cc1ccc(NC2CN(C(=O)Nc3ncc(Cl)s3)C2)cc1Cl measurement_name=log10(EC50) data_value=0.23
compound=Cc1cnc(NC(=O)N2CCN(c3ccc(Cl)cc3)CC2)s1 measurement_name=log10(EC50) data_value=0.74
compound=Cc1cnc(NC(=O)N2CCN(c3ccc(C)c(Cl)c3)CC2)s1 measurement_name=log10(EC50) data_value=0.70
compound="Cc1cnc(NC(=O)N2CCC(Nc3ccc(Cl)c(C)c3)C2)s1 (configuration not stated)" measurement_name=log10(EC50) data_value=1.15
compound=Cc1cnc2[nH]c(N3CCN(c4ccc(Cl)c(Cl)c4)CC3)nc2c1 measurement_name=log10(EC50) data_value=-0.09
compound=Cc1cnc(NC(=O)N2CCN(c3ccccc3)CC2)s1 measurement_name=log10(EC50) data_value=0.70
compound=N#Cc1cnc(NC(=O)N2CCN(c3ccc(Cl)c(Cl)c3)CC2)s1 measurement_name=log10(EC50) data_value=0.64
compound=Cc1ccc(N2CCN(C(=O)Nc3nccs3)CC2)cc1Cl measurement_name=log10(EC50) data_value=0.60
compound=N#Cc1cccc(N2CCN(C(=O)Nc3ncc(Cl)s3)CC2)c1 measurement_name=log10(EC50) data_value=-0.30
compound=Cc1cc(OC2CCN(C(=O)Nc3ncc(Cl)s3)CC2)ccc1Cl measurement_name=log10(EC50) data_value=1.30
compound=O=C(Nc1ncc(Cl)s1)N1CCN(c2cc(C(F)(F)F)c(Cl)cn2)CC1 measurement_name=log10(EC50) data_value=0.26
compound=Cc1cnc2[nH]c(N3CCN(c4cnc(Cl)c(Cl)c4)CC3)nc2c1 measurement_name=log10(EC50) data_value=-0.89
compound="Cc1cnc(NC(=O)N2CCC(Oc3ccc(Cl)c(C)c3)C2)s1 (configuration not stated)" measurement_name=log10(EC50) data_value=0.72
compound=O=C(Nc1ncc(C(F)(F)F)s1)N1CCN(c2cnc(Cl)c(Cl)c2)CC1 measurement_name=log10(EC50) data_value=-0.32

---

Assay: Metabolic stability in mouse liver microsomes assessed as half life at 1 uM measured upto 60 mins by LC-MS anlaysis
Format: ADME, Microsome
# half-life at 1 µM values compiled below
measurement_name: half-life at 1 µM (min)

chemical_structure=Cc1ccc(OCCCc2nc3cc(Cl)cnc3[nH]2)cc1Cl measurement_name="half-life at 1 µM" result_operator=< data_value=2
chemical_structure=Cc1ccc(NC2CN(C(=O)Nc3ncc(Cl)s3)C2)cc1Cl measurement_name="half-life at 1 µM" result_operator== data_value=36
chemical_structure=N#Cc1cnc(NC(=O)N2CCN(c3ccc(Cl)c(Cl)c3)CC2)s1 measurement_name="half-life at 1 µM" result_operator== data_value=117
chemical_structure=N#Cc1cccc(N2CCN(C(=O)Nc3ncc(Cl)s3)CC2)c1 measurement_name="half-life at 1 µM" result_operator== data_value=46

---

# solubility kinetic values compiled below
Assay: Aqueous solubility of compound at pH 2 by nephelometry
Type: physicochemical
measurement_name: solubility kinetic

chemical_structure=Cc1cnc(NC(=O)CCCOc2ccc(Cl)c(C)c2)s1 data_value="< 1.1 µM"
chemical_structure=Cc1ccc(N2CCN(C(=O)Nc3ncc(Cl)s3)CC2)cc1Cl data_value="< 1.6 µM"
chemical_structure=N#Cc1cnc(NC(=O)N2CCN(c3cnc(Cl)c(Cl)c3)CC2)s1 data_value="< 1.6 µM"
chemical_structure=N#Cc1cccc(N2CCN(C(=O)Nc3ncc(Cl)s3)CC2)c1 data_value="< 1.6 µM"
chemical_structure=O=C(Nc1ncc(Cl)s1)N1CCN(c2cnc(Cl)c(Cl)c2)CC1 data_value="< 1.6 µM"
chemical_structure=N#Cc1cnc(NC(=O)N2CCN(c3ccc(Cl)c(Cl)c3)CC2)s1 data_value="< 1.6 µM"

---

# EC50 values compiled below
Test system: Human immunodeficiency virus 1
Assay: Antiviral activity against HIV-1 infected in FlpIn-HEK293 cells assessed as activation of long terminal repeat driven gene expression incubated for 72 hrs by luciferase based cellular assay
Assay type: functional, organism-based
Details: Human immunodeficiency virus 1, HEK293, 72 h
measurement_name: EC50 (nM)

compound="Cc1ccc(N2CCN(C(=O)Nc3ncc(Cl)s3)C(C)C2)cc1Cl (stereo not given)" units_of_measure=nM data_value=1300
compound="Cc1cc(OC2CCN(C(=O)Nc3ncc(Cl)s3)C2)ccc1Cl (stereo not given)" units_of_measure=nM data_value=1500
compound=O=C(Nc1ncc(Cl)s1)N1CCN(c2cc(C(F)(F)F)c(Cl)cn2)CC1 units_of_measure=nM data_value=920
compound="Cc1ccc(N2CCN(C(=O)Nc3ncc(Cl)s3)CC2C)cc1Cl (stereo not given)" units_of_measure=nM data_value=820
compound=Cc1cnc(NC(=O)N2CC(Nc3ccc(C)c(Cl)c3)C2)s1 units_of_measure=nM data_value=670
compound=Cc1cnc2[nH]c(N3CCN(c4cnc(Cl)c(Cl)c4)CC3)nc2c1 units_of_measure=nM data_value=1300
compound=N#Cc1cnc(NC(=O)N2CCN(c3ccc(Cl)cc3)CC2)s1 units_of_measure=nM data_value=1500
compound="Cc1cc(NC2CCN(C(=O)Nc3ncc(Cl)s3)C2)ccc1Cl (stereo not given)" units_of_measure=nM data_value=790
compound=Cc1cc(N2CCN(C(=O)Nc3ncc(C#N)s3)CC2)ccc1Cl units_of_measure=nM data_value=710
compound=Cc1cnc2[nH]c(N3CCN(c4ccc(Cl)c(Cl)c4)CC3)nc2c1 units_of_measure=nM data_value=750

Recorded values, source ChEMBL document CHEMBL4765284.
